MEASUREMENT_TARGET: Sigma 1 (Cavia porcellus)
Sequence (Q60492 whole entry): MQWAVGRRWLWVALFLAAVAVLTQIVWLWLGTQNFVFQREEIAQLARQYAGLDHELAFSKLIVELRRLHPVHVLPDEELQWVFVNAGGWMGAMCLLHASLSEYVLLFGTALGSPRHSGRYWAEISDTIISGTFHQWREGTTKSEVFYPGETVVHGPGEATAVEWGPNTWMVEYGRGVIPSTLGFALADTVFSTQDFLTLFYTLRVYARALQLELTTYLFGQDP
METRIC_NAME: IC50 (µM)
Response body: numeric value in µM, unit text excluded.

Prompt line: Please respond with reported IC50 (system Sigma 1 (Cavia porcellus)) for CCN[C@@H](C)Cc1cccc(C(F)(F)F)c1 [Dexfenfluramine] .
Response line: 0.125

====

MEASUREMENT_TARGET: serotonin 5-HT1A (Rattus norvegicus)
Construct: serotonin 5-HT1A (rat cerebral cortex); from tissue; host or cells: rat cerebral cortex
Sequence (P19327 whole entry): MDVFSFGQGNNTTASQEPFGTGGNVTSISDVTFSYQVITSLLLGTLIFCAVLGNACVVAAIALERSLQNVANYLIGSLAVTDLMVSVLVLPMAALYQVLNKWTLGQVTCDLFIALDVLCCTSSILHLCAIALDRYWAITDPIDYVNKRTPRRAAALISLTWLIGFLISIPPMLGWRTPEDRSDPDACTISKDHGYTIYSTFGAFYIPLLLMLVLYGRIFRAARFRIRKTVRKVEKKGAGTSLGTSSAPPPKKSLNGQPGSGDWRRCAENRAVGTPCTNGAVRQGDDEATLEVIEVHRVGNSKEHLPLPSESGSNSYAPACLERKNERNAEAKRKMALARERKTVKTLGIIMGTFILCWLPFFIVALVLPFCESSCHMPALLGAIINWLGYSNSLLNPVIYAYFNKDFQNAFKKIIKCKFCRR
ASSAY_METHOD_TEXT: Competitive radioligand binding assay, serotonin 5-HT1A
METRIC_NAME: Ki (µM)
Response body: numeric value in µM, unit text excluded.

>>> reported_value("CCNC(C)Cc1cccc(C(F)(F)F)c1 (racemic) [fenfluramine]")
0.327

We now examine a further molecule.
Prompt line: Give the measured Ki for CCN[C@@H](C)Cc1cccc(C(F)(F)F)c1 [Dexfenfluramine]
Response line: 0.711
